- testedOn: T1, human IL-18BP (human, UniProt O95998 31-194)
- T1 construct: UniProt printed as 095998; also called hIL-18BP
- T1 sequence: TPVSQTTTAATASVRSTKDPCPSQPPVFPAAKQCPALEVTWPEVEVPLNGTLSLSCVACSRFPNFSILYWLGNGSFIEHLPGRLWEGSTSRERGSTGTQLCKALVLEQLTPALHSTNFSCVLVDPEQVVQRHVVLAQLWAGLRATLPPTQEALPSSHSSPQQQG
- methodSummary: BLI, apparent KD
parameterMeasured: log10 of Kd (log10 of the value in nM)

{"binder": "SA301a HC-S56V (antibody, name in Kabat numbering, V domains shown, IgG1 kappa) VH: QVQLQESGPGLVKPSQTLSLTCTVSGYSITSDYNSHWIRQPPGKGLEWIGYIHYSGVTNYNPSLKSRVTISRDTSKNQFSLKLSSVTAADTAVYYCARNYGSIYVNYFDYWGQGTLVTVSS VL: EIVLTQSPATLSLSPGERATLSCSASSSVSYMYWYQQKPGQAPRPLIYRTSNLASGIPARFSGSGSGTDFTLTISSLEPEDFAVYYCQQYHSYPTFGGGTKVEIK", "recordedMeasurement": -0.60}
{"binder": "SA301a HC-G55Y (antibody, name in Kabat numbering, V domains shown, IgG1 kappa) VH: QVQLQESGPGLVKPSQTLSLTCTVSGYSITSDYNSHWIRQPPGKGLEWIGYIHYSYSTNYNPSLKSRVTISRDTSKNQFSLKLSSVTAADTAVYYCARNYGSIYVNYFDYWGQGTLVTVSS VL: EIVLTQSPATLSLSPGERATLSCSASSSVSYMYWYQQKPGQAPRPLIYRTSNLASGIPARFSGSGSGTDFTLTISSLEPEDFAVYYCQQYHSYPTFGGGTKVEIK", "recordedMeasurement": 0.37}
{"binder": "SA301a HC-Y59T (antibody, name in Kabat numbering, V domains shown, IgG1 kappa) VH: QVQLQESGPGLVKPSQTLSLTCTVSGYSITSDYNSHWIRQPPGKGLEWIGYIHYSGSTNTNPSLKSRVTISRDTSKNQFSLKLSSVTAADTAVYYCARNYGSIYVNYFDYWGQGTLVTVSS VL: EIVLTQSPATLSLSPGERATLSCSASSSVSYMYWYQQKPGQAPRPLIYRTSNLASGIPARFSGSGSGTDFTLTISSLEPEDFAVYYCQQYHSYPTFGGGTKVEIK", "recordedMeasurement": -0.85}
{"binder": "SA301a HC-N58D (antibody, name in Kabat numbering, V domains shown, IgG1 kappa) VH: QVQLQESGPGLVKPSQTLSLTCTVSGYSITSDYNSHWIRQPPGKGLEWIGYIHYSGSTDYNPSLKSRVTISRDTSKNQFSLKLSSVTAADTAVYYCARNYGSIYVNYFDYWGQGTLVTVSS VL: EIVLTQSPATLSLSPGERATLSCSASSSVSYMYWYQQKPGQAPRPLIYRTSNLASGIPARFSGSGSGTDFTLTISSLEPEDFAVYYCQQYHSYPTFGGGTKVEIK", "recordedMeasurement": 0.65}
{"binder": "SA301a HC-T57E (antibody, name in Kabat numbering, V domains shown, IgG1 kappa) VH: QVQLQESGPGLVKPSQTLSLTCTVSGYSITSDYNSHWIRQPPGKGLEWIGYIHYSGSENYNPSLKSRVTISRDTSKNQFSLKLSSVTAADTAVYYCARNYGSIYVNYFDYWGQGTLVTVSS VL: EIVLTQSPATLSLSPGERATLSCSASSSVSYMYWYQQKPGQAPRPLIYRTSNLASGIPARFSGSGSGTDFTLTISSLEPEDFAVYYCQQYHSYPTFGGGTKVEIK", "recordedMeasurement": -0.38}

Reference source: patent US20250368745A1
